Values from the kinase profiling compilation of Christmann-Franck et al. (2016)

So I've got a bunch of compounds here, and I need their residual activity values.
Assay Target: UniProtKB P51812
Sequence (P51812 whole entry, looked up): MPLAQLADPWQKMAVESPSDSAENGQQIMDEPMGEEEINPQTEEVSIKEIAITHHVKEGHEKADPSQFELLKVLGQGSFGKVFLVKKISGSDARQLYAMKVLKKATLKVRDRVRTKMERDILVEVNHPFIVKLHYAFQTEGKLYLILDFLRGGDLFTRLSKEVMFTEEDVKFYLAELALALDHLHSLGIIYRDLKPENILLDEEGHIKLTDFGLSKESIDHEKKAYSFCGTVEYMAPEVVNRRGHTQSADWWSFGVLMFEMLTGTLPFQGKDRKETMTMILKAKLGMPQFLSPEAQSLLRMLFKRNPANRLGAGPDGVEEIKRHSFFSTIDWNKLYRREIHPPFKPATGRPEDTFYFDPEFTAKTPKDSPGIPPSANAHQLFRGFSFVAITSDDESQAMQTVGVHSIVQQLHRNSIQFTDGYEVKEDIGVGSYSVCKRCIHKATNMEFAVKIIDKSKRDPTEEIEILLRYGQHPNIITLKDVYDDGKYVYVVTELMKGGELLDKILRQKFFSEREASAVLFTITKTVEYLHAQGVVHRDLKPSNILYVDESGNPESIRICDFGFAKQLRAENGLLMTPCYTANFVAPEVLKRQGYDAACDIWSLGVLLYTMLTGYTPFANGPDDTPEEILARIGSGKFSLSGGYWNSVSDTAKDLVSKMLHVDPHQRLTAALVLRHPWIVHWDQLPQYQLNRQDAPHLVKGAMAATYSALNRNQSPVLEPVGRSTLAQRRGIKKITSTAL
Protocol Description: radiometric filter-binding kinase assay
Applied Conditions: compound 0.01 µM
Reply numerically in %, unit not repeated.

Quick note, residual activity for C/C(=C1/C(=O)Nc2ccc(NC(N)=O)cc21)c1ccc[nH]1 landed at 65

Quick note, residual activity for CNC(=O)C1[C@H]2O[C@@](C)([C@@H]1N)n1c3ccccc3c3c4c(c5c6ccccc6n2c5c31)C(=O)NC4 (stereo not given in full) landed at 16

Quick note, residual activity for COc1cc(O)c2c(c1)[C@H]1OC1C[C@H](O)[C@H](O)C(=O)/C=C\C[C@H](C)OC2=O (stereo not given in full) landed at 129

Quick note, residual activity for O=C(Nc1nc2cc(C(F)(F)F)cc(NC3CC3)n2n1)c1cccnc1 landed at 112

Quick note, residual activity for COc1ccc(N(C(=O)Nc2c(C)cccc2C)c2cc(Nc3ccc(N4CCN(C)CC4)cc3)ncn2)c(OC)c1 landed at 100
